# SYSTEM UNDER TEST: human glycine transporter 1b cDNA (GlyT1) (Homo sapiens, UniProt P48067)
# Construct: expressed in transfected cells
# Sequence (P48067 1-652 isoform P48067-3): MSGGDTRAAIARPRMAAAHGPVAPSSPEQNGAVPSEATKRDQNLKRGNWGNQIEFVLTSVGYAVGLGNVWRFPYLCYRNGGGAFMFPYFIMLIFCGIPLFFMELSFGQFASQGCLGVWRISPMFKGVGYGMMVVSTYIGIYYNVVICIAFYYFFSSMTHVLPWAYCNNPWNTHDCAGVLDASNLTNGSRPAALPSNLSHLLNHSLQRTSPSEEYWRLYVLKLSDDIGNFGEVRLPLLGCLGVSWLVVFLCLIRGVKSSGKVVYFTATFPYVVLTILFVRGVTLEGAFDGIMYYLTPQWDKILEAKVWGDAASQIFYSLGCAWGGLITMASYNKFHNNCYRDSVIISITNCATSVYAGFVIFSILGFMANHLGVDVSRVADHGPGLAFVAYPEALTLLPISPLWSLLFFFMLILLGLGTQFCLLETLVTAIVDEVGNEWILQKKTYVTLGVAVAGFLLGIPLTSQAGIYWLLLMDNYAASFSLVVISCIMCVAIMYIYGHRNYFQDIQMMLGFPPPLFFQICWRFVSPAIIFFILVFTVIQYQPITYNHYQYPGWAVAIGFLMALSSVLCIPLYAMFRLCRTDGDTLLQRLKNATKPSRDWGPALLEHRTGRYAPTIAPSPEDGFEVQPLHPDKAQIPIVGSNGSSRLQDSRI
# TEST: Inhibition of glycine transporter 1 in a cellular assay ([3H] glycine uptake into CHO cells)
# Assay type: cell-based
# DETAILS: read-out: IC50 for tritiated glycine uptake; pure compounds; CHO cells expressing GlyT1, 60 nM [3H] glycine, 30 minutes at room temperature
REPORTED ENDPOINT: IC50 (nM)

>>> reading("CN(CC[C@@H](Oc1ccc(C(F)(F)F)cc1)c1ccccc1)CC(=O)O [ORG24598, reference compound]")
20

###

# SYSTEM UNDER TEST: human glycine transporter 1b cDNA (GlyT1) (Homo sapiens, UniProt P48067)
# Construct: expressed in transfected cells
# TEST: Inhibition of glycine transporter 1 in a cellular assay ([3H] glycine uptake into CHO cells)
# Format: cell-based
REPORTED ENDPOINT: IC50 (µM)

>>> reading("O=C(/C=C/C=C/c1ccc2c(c1)OCO2)N1CCCCC1")
48.7

###

# Test system: pCREB
# TEST: Hippocampal slice cultures, immunohistochemistry of synaptic marker pCREB; further: key: ++++ shows a qualitative maximal activation; -- shows a reduced activation; ++ signifies a half-maximum activation; ± demonstrated no change in immunoreactivity
# Type: cell-based, Wistar rats
# DETAILS: relative activation vs sister cultures treated with buffer; 15 min treatment after 48 h in culture
REPORTED ENDPOINT: pCREB

>>> reading("O=C(/C=C/C=C/c1ccc2c(c1)OCO2)N1CCCCC1")
"±"
>>> reading("NCC(=O)O [Glycine, reference compound]")
"++"
>>> reading("COc1cc(/C=C/C(=O)N2CCC=CC2=O)cc(OC)c1OC")
"±"
>>> reading("CNCC(=O)O [Sarcosine, reference compound]")
"±"
